Where do these numbers come from? They come from paper PMC8991199.

Target: fVL, fluorescently labelled H14 foldamer VL
Experiment: fluorescence polarisation; direct FP: S100 protein diluted in 50 nM labeled foldamer, 20 mM HEPES pH 7.5, 150 mM NaCl, 1 mM CaCl2, 0.5 mM TCEP, 0.01% Tween20; quadratic fit (ProFit); detection threshold Kd 1 mM
value.type: Kd

Past entries and their recorded results:
{"binder": "S100A16 (natural protein) MSDCYTELEKAVIVLVENFYKYVSKYSLVKNKISKSSFREMLQKELNHMLSDTGNRKAADKLIQNLDANHDGRISFDEYWTLIGGITGPIAKLIHEQEQQSSS", "Kd": "> 1000 µM"}
{"binder": "S100A13 (natural protein) MAAEPLTELEESIETVVTTFFTFARQEGRKDSLSVNEFKELVTQQLPHLLKDVGSLDEKMKSLDVNQDSELKFNEYWRLIGELAKEIRKKKDLKIRKK", "Kd": "> 1000 µM"}

**Q:** Requested read-out: Kd. Entry: S100A11 (natural protein) MAKISSPTETERCIESLIAVFQKYAGKDGYNYTLSKTEFLSFMNTELAAFTKNQKDPGVLDRMMKKLDTNSDGQLDFSEFLNLIGGLAMACHDSFLKAVPSQKRT
**A:** > 1000 µM

**Q:** Requested read-out: Kd. Entry: S100B (natural protein) MSELEKAMVALIDVFHQYSGREGDKHKLKKSELKELINNELSHFLEEIKEQEVVDKVMETLDNDGDGECDFQEFMAFVAMVTTACHEFFEHE
**A:** 50 µM

**Q:** Requested read-out: Kd. Entry: S100A3 (natural protein) MARPLEQAVAAIVCTFQEYAGRCGDKYKLCQAELKELLQKELATWTPTEFRECDYNKFMSVLDTNKDCEVDFVEYVRSLACLCLYCHEYFKDCPSEPPCSQ
**A:** > 1000 µM
